In this section, each of the compounds is paired with its reported growth inhibition.
Assay: NCI Yeast Anticancer Drug Screen. Data for the mec2-1 strain (AID 157)
Conditions: S. cerevisiae mec2-1 strain, at 50.0 µM, active compounds read high
Description: Growth inhibition of yeast strains with defined genetic alterations is measured as a screen for potential anti-cancer activity. Selected strains with alterations in DNA damage repair or cell cycle control were exposed to compounds and growth inhibition was measured relative to vehicle treated controls. The strain used in this assay is mec2-1
The panel holds about 79,000 compounds, 15% with a hit somewhere; the sample as a whole holds those more often.
Write down the numeric answer in % and omit the unit.

**Query** # growth inhibition lookup, item COc1ccc(C(CC(=O)O)CC(=O)N(CCCl)CCCl)cc1C (stereo not given)
**Result** 25.6

**Query** Next up: C[C@]12CC[C@H](O)C=C1CC[C@@H]1[C@@H]2CC[C@]2(C)C(c3ccc(=O)oc3)CC[C@]12O (stereo not given in full)
**Result** -12.9

**Query** Would you kindly repeat that for NC(=O)C1(Br)CCCCC1 ?
**Result** -18.9

**Query** Another compound: CN(C)C1C(=O)C(C(=O)NP(=O)(NCCCO)N(CCCl)CCCl)=C(O)C2(O)C(=O)C3=C(O)c4c(O)cccc4C(C)(O)C3CC12 (stereo not given)
**Result** 20.1

**Query** Next entry: N.N.N.N.O=N[O-].O=N[O-].[Cl-].[Co+3]
**Result** 16.1

Please look at the following compound next.
**Query** Looking for the measured growth inhibition of CN(C)C(=O)C(CC[N+](C)(C)C)(c1ccccc1)c1ccccc1 , can you help?
**Result** 5.5
